Target: cyclooxygenase (Rattus norvegicus)
Construct: endogenous in cells
Sequence (Q63921 27-602): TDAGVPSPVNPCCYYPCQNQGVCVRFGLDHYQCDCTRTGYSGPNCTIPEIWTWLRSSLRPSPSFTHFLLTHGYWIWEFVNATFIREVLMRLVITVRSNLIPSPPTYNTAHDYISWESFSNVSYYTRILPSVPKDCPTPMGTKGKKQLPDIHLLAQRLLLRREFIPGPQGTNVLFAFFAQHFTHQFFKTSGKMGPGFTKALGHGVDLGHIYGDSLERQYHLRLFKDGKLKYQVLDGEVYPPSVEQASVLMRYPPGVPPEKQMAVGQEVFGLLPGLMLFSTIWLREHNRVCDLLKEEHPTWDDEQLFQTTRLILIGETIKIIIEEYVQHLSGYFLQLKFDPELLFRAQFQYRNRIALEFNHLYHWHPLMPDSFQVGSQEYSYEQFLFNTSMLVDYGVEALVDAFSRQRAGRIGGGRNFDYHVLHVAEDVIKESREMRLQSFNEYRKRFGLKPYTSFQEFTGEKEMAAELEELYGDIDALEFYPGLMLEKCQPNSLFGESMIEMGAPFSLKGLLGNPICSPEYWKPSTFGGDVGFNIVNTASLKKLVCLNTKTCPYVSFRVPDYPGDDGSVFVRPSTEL
Test: ARBC whole cell cyclooxygenase assay (inhibition of PGF2α formation in RBL-1 cells)
Conditions: A23187 (5 μM) stimulated, PGF2α formation, read-out: ARBC, inhibition of PGF2, IC50
Quantity Kind: IC50 (nM)

(1) COc1ccc2[nH]c(C)c(/C=C3\SC(SC)=NC3=O)c2c1 [Example 1]
(2) CSC1=NC(=O)/C(=C/c2c(C)[nH]c3ccccc23)S1 [Example 3]
Which one would you say has the larger IC50 value: 1 , or 2 ? Refer to your chosen entry by its label in the reply. 1
(1: 290 nM, 2: 140 nM)

----------
Target: 5-lipoxygenase (Rattus norvegicus)
Construct: endogenous in cells
Sequence (P12527 whole entry): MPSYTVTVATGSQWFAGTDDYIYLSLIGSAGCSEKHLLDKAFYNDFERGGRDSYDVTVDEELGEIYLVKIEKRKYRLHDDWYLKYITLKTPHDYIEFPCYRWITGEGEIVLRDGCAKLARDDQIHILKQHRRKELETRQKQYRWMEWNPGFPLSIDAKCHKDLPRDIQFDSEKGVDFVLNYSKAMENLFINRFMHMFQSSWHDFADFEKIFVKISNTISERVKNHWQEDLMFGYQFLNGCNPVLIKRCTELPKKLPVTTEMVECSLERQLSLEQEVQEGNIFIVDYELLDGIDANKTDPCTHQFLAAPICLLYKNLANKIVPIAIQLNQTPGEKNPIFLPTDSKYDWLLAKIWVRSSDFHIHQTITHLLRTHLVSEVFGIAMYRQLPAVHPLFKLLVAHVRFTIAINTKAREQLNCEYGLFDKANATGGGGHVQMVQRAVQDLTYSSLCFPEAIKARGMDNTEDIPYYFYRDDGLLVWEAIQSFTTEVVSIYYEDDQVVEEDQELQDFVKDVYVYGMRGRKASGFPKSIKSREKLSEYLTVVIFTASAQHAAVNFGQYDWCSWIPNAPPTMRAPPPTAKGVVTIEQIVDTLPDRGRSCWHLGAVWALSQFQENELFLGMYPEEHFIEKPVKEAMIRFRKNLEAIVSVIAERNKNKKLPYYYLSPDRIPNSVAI
Experiment: ARBL whole cell 5-lipoxygenase assay (inhibition of LTB4 formation in RBL-1 cells)
Details: A23187 (5 μM) stimulated, LTB4 formation
Quantity Kind: IC50 (µM)

(a) CSC1=NC(=O)/C(=C/c2c(C)[nH]c3ccccc23)S1
(b) COc1ccc2[nH]c(C)c(/C=C3\SC(SC)=NC3=O)c2c1
Which entry shows the lesser value of IC50 here, a or b ? Refer to your chosen entry by its label in the reply. a
(a: 4.43 µM, b: 8.23 µM)
